Numbers sourced from paper PMC4053984.

Study target: PRDM9Cst (Mus musculus (CAST/EiJ))
Sequence (chain, as listed by the source): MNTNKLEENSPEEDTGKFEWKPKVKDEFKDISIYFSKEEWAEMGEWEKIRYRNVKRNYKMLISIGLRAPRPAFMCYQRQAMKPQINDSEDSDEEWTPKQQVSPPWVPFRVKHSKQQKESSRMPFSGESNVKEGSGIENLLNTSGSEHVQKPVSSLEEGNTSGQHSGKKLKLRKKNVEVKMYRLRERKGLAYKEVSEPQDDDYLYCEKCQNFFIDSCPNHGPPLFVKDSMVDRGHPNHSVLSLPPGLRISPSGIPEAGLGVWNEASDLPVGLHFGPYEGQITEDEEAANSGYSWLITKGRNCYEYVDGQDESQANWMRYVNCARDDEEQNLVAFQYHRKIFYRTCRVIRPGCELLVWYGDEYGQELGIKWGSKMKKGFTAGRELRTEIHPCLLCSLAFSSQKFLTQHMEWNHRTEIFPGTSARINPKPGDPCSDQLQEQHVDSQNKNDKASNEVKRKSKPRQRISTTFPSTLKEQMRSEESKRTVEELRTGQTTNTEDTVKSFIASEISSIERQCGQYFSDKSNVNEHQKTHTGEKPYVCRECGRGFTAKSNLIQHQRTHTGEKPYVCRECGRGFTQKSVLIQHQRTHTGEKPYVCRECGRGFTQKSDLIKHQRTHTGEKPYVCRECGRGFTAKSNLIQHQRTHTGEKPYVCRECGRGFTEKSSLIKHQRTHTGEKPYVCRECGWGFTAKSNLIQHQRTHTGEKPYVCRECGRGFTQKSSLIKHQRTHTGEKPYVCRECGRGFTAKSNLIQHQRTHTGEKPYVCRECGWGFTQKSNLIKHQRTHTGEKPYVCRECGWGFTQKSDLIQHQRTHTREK
Assay explanation: competition EMSA; competition against biotin-labeled 75-bp Hlx1 B6 oligo; 10 mM Tris pH 7.5, 50 mM KCl, 1 mM DTT, 50 ng/ul poly(dI/dC), 0.05% NP-40, crude E. coli extract 3 ul in 20 ul; 1 h with unlabeled competitor, then 4 h with biotin-labeled 75-bp Hlx1; temperature not stated; high values mean tight binding
Conditions: tags: N-terminal His tag (pBAD/HisB); dsDNA, one strand shown
Property: binding signal

{"Seq": "ATAGTGTGCAGACTAGGACCCTGCCCTTTCTTT", "Study target": "PRDM9Cst (Mus musculus (CAST/EiJ))", "Observed result": "0 Bmut (0 = wild type, -1 = scrambled)"}
{"Seq": "ATAGTGTGTAGACTTGGACCCTGCCCTTTCTTT", "Study target": "PRDM9Cst (Mus musculus (CAST/EiJ))", "Observed result": "0 Bmut (0 = wild type, -1 = scrambled)"}
{"Seq": "ATAGTGTACAGACTTGGACCCTGCCCTTTCTTT", "Study target": "PRDM9Cst (Mus musculus (CAST/EiJ))", "Observed result": "0.1 Bmut (0 = wild type, -1 = scrambled)"}
{"Seq": "ATAGTGTGCAGACTTGGACACTGCCCTTTCTTT", "Study target": "PRDM9Cst (Mus musculus (CAST/EiJ))", "Observed result": "-0 Bmut (0 = wild type, -1 = scrambled)"}
{"Seq": "ATAGTATGCAGACTTGGACCCTGCCCTTTCTTT", "Study target": "PRDM9Cst (Mus musculus (CAST/EiJ))", "Observed result": "0 Bmut (0 = wild type, -1 = scrambled)"}
{"Seq": "ATAGTGTGCAGACCTGGACCCTGCCCTTTCTTT", "Study target": "PRDM9Cst (Mus musculus (CAST/EiJ))", "Observed result": "0 Bmut (0 = wild type, -1 = scrambled)"}

====

Study target: PRDM9Cst (Mus musculus (CAST/EiJ))
Assay explanation: competition EMSA; competition against biotin-labeled 75-bp Hlx1 B6 oligo; 10 mM Tris pH 7.5, 50 mM KCl, 1 mM DTT, 50 ng/ul poly(dI/dC), 0.05% NP-40, crude E. coli extract 3 ul in 20 ul; 1 h with unlabeled competitor, then 4 h with biotin-labeled 75-bp Hlx1; temperature not stated; high values mean tight binding
Conditions: tags: N-terminal His tag (pBAD/HisB); dsDNA, one strand shown
Each entry below carries its reported binding signal.
Property: binding signal

{"Seq": "ATAGTGTGCAGACTTTGACCCTGCCCTTTCTTT", "Observed result": "0 Bmut (0 = wild type, -1 = scrambled)"}
{"Seq": "ATAGTGTGCAGACTTGGACCCTGCCCTTGCTTT", "Observed result": "-0 Bmut (0 = wild type, -1 = scrambled)"}

====

Study target: PRDM9Cst (Mus musculus (CAST/EiJ))
Assay explanation: competition EMSA; competition against biotin-labeled 75-bp Hlx1 B6 oligo; 10 mM Tris pH 7.5, 50 mM KCl, 1 mM DTT, 50 ng/ul poly(dI/dC), 0.05% NP-40, crude E. coli extract 3 ul in 20 ul; 1 h with unlabeled competitor, then 4 h with biotin-labeled 75-bp Hlx1; temperature not stated; high values mean tight binding
Conditions: tags: N-terminal His tag (pBAD/HisB); dsDNA, one strand shown

{"Seq": "ATAGTGTGGAGACTTGGACCCTGCCCTTTCTTT", "binding signal": "0.1 Bmut (0 = wild type, -1 = scrambled)"}
